Values compiled from PubChem BioAssay AID2060603.

- Tested on: 422866-222-R5-J1-PDC spheroid viability;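 further: spheroids exposed to agents for seven days before readout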
- PROTOCOL TEXT: Anticancer human tumor 422866-222-R5-J1-PDC patient-derived pancreatic adenocarcinoma cell line growth inhibition [CLK]
- TEST CONTEXT: second compound 0.0316 µM; first compound 0.316 µM; active compounds read low; spheroids with HUVEC and MSC
- From the text: A high-throughput screen of multi-cell type tumor spheroids was designed to identify active combinations of […] and targeted small molecules. Complex spheroids include a stromal component modeled by human endothelial cells (HUVEC) and fibroblasts modeled by human mesenchymal stem cells (MSCs). […] Compounds. […] If the clinical Cmax for an agent had not been determined, the highest concentration tested was 10 microM. […]
RESULT TYPE: viability, T/C (%)
Number only, in %; omit the unit.

Form field, viability, T/C with 422866-222-R5-J1-PDC spheroid viability, item COC1C=CCC(C)C(C)S(=O)(=O)NC(=O)c2ccc3c(c2)N(CC2CCC21)CC1(CCCc2cc(Cl)ccc21)CO3 (stereo not drawn) + CNC(=O)c1ccc(Nc2nc(OC3CCCC3)c3c(-c4ccc5nc(C)oc5c4)c[nH]c3n2)c(OC)c1 : 114

Form field, viability, T/C with 422866-222-R5-J1-PDC spheroid viability, item CCc1c2c(nc3ccc(O)cc13)-c1cc3c(c(=O)n1C2)COC(=O)[C@]3(O)CC + CN1CCN(c2cc(C(=O)Nc3cc4cc(-c5cnn(C)c5)ccc4cn3)ccn2)CC1 : 27.9

Form field, viability, T/C with 422866-222-R5-J1-PDC spheroid viability, item C=C(F)C(=O)N1CCN(c2nc(OCC3CCCN3C)nc3c2CCN(c2cccc4cccc(Cl)c24)C3)CC1CC#N (stereo not drawn) + CN1CCN(c2cc(C(=O)Nc3cc4cc(-c5cnn(C)c5)ccc4cn3)ccn2)CC1 : 27
